Listed here are compounds together with their documented growth inhibition by drug alone.
System: RIVA
Run description: growth inhibition by drug alone (1 - RLU/untreated control) (fraction); higher = stronger inhibition
Stated conditions: 100 nM; time (day): 4; 177Lu-lilotomab satetraxetan 0 ug/ml
Recorded metric: growth inhibition by drug alone

In [3]: df
Out[3]:
                    structure_smiles_string  observed_value
0  FC(F)c1nc2ccccc2n1-c1nc(N2CCOCC2)nc(N2CCOCC2)n1           0.782
1  Cc1cccc(-c2[nH]c(C(C)(C)C)nc2-c2ccc3nccnc3c2)n1           -0.28
2  COc1cc2c(N3CCN(C(=O)Nc4ccc(OC(C)C)cc4)CC3)ncnc2cc1OCCCN1CCCCC1           -0.12
3  CNC(=O)[C@@H](NC(=O)[C@H](CC(C)C)[C@H](O)C(=O)NO)C(C)(C)C          -0.486
